tested on: Candida albicans; assay: Effect on sterol composition in Candida albicans isolate 108 harboring erg11 and erg5 double mutant eburicol level after 2 hrs by gas chromatography; format: functional; design: concentration or dose not given beside the values
Threshold check on Activity: strictly below 9% is YES; on or above 9% is NO.

See these solved cases before continuing.
compound | answer label
CCC(C)n1ncn(-c2ccc(N3CCN(c4ccc(OCC5COC(Cn6cncn6)(c6ccc(Cl)cc6Cl)O5)cc4)CC3)cc2)c1=O (stereo not given) [ITRACONAZOLE] | YES
Clc1ccccc1C(c1ccccc1)(c1ccccc1)n1ccnc1 [CLOTRIMAZOLE] | YES
CC(=O)N1CCN(c2ccc(OCC3COC(Cn4ccnc4)(c4ccc(Cl)cc4Cl)O3)cc2)CC1 (stereo not given) [KETOCONAZOLE] | NO

Just wondering, is Activity of C[C@@H](c1ncncc1F)[C@](O)(Cn1cncn1)c1ccc(F)cc1F [VORICONAZOLE] below 9%?
NO

Please determine if OC(Cn1cncn1)(Cn1cncn1)c1ccc(F)cc1F [FLUCONAZOLE] is below 9% in terms of Activity.
YES

###

test system: Candida albicans; assay: Effect on sterol composition in Candida albicans isolate 14 expressing wild type erg11 and erg5 assessed as ergosterol level after 2 hrs by gas chromatography; type: functional; parameters: concentration or dose not given beside the values
readout label: Activity (%)
Numbers only, in %.

compound | quantity unit | value measured
C[C@@H](c1ncncc1F)[C@](O)(Cn1cncn1)c1ccc(F)cc1F [VORICONAZOLE] | % | 47.3
OC(Cn1cncn1)(Cn1cncn1)c1ccc(F)cc1F [FLUCONAZOLE] | % | 45.5

// for each compound below, give its Activity
1. CC(=O)N1CCN(c2ccc(OCC3COC(Cn4ccnc4)(c4ccc(Cl)cc4Cl)O3)cc2)CC1 (stereo not given) [KETOCONAZOLE]
2. Clc1ccccc1C(c1ccccc1)(c1ccccc1)n1ccnc1 [CLOTRIMAZOLE]
3. CCC(C)n1ncn(-c2ccc(N3CCN(c4ccc(OCC5COC(Cn6cncn6)(c6ccc(Cl)cc6Cl)O5)cc4)CC3)cc2)c1=O (stereo not given) [ITRACONAZOLE]

36.4
30
33

###

What MIC was measured for each of the following?
system: Candida albicans; assay: Antifungal activity against Candida albicans isolate 108 harboring erg11 and erg5 double mutant after 48 hrs by broth microdilution method; assay type: functional; conditions: isolate 108, 48 h
Write down the value, and be sure its unit follows.

Before answering, review these 4 worked examples.
molecule | MIC
CCC(C)n1ncn(-c2ccc(N3CCN(c4ccc(OCC5COC(Cn6cncn6)(c6ccc(Cl)cc6Cl)O5)cc4)CC3)cc2)c1=O (stereo not given) | 2 µg/mL
C[C@@H](c1ncncc1F)[C@](O)(Cn1cncn1)c1ccc(F)cc1F | 8 µg/mL
OC(Cn1cncn1)(Cn1cncn1)c1ccc(F)cc1F | 64 µg/mL
Clc1ccccc1C(c1ccccc1)(c1ccccc1)n1ccnc1 | 2 µg/mL

Okay, next one:
Return value of MIC for input CC(=O)N1CCN(c2ccc(OCC3COC(Cn4ccnc4)(c4ccc(Cl)cc4Cl)O3)cc2)CC1 (stereo not given) , no commentary.
1 µg/mL

###

test system: Candida albicans; experiment: Effect on sterol composition in Candida albicans isolate 108 harboring erg11 and erg5 double mutant assessed as obtusifoliol level after 2 hrs by gas chromatography; format: functional; design: concentration or dose not given beside the values
readout label: Activity (%)
Give bare numbers, in %.

Answered examples (4):
molecule | value measured
CCC(C)n1ncn(-c2ccc(N3CCN(c4ccc(OCC5COC(Cn6cncn6)(c6ccc(Cl)cc6Cl)O5)cc4)CC3)cc2)c1=O (stereo not given) [ITRACONAZOLE] | 16.7
C[C@@H](c1ncncc1F)[C@](O)(Cn1cncn1)c1ccc(F)cc1F [VORICONAZOLE] | 29.5
OC(Cn1cncn1)(Cn1cncn1)c1ccc(F)cc1F [FLUCONAZOLE] | 25.7
Clc1ccccc1C(c1ccccc1)(c1ccccc1)n1ccnc1 [CLOTRIMAZOLE] | 16.4

Now turn to the next molecule.
Find Activity for CC(=O)N1CCN(c2ccc(OCC3COC(Cn4ccnc4)(c4ccc(Cl)cc4Cl)O3)cc2)CC1 (stereo not given) [KETOCONAZOLE] on Candida albicans and write it down.
20.3
